Measured on: Ribonucleotide reductase (Homo sapiens, UniProt P23921+Q7LG56)
Sequence (P23921 whole entry, looked up): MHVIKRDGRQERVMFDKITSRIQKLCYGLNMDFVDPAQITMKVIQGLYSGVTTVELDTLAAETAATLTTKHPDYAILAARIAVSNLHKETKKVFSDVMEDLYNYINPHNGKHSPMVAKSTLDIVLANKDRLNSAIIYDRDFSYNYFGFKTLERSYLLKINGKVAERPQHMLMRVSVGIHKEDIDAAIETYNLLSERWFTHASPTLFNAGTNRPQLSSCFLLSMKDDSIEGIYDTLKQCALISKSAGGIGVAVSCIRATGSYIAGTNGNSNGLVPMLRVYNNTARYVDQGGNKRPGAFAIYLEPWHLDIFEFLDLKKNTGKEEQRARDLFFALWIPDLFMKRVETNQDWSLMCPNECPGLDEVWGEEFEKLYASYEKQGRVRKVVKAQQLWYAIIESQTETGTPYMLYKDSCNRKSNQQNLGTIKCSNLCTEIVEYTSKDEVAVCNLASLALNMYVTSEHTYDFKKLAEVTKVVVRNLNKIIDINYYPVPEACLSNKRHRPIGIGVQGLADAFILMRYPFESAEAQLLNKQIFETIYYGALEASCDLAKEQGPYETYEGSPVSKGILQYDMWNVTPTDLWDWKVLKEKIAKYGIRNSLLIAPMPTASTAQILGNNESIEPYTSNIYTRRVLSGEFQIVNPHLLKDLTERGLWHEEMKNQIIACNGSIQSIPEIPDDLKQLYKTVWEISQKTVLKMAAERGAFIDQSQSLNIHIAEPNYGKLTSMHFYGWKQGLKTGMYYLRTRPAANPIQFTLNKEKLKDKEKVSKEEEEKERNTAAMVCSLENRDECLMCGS
Sequence (Q7LG56 whole entry, looked up): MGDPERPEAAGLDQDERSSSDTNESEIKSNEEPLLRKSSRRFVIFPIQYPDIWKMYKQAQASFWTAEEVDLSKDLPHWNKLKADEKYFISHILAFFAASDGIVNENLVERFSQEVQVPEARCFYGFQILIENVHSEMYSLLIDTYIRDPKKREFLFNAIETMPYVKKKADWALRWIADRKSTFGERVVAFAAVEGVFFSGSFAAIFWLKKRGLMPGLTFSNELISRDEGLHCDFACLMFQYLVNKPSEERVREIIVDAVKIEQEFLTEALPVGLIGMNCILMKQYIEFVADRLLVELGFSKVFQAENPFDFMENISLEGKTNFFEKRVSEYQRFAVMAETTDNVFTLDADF
Run description: Human RNR Inhibition Effect: The inhibitory activity against the ribonucleotide reduction reaction (hereinafter referred to as RNR reaction) of the test compound was determined by measuring the formation of deoxycytidine diphosphate (hereinafter referred to as dCDP) from cytidine diphosphate (hereinafter referred to as CDP) by the following method.Human M1 subunit and human M2 subunit (mutant …
pIC50: −log10 of the molar value.
Quantity kind: pIC50

[1] Cc1c(Cl)ccc(F)c1[C@@H](C)[C@H](NS(=O)(=O)c1ccc(Cl)c2c1OCCN2C)c1n[nH]c(=O)o1
[2] Cc1ccc(F)c([C@@H](C)[C@H](NS(=O)(=O)c2cc(F)c(Cl)cc2C(=O)O)c2n[nH]c(=O)o2)c1C
[3] CC(=O)OC1(C)CCOc2c(S(=O)(=O)N[C@H](c3n[nH]c(=O)o3)[C@H](C)c3c(F)ccc(Cl)c3C)ccc(Cl)c21 (some centres undefined)
Task item: Output the listed items in decreasing order of pIC50. Respond with the label ranking, as requested.
Reply: 1, 3, 2
(1: 6.89, 3: 6.52, 2: 6.02)

---

Measured on: Ribonucleotide reductase (Homo sapiens, UniProt P23921+Q7LG56)
Run description: Human RNR Inhibition Effect: The inhibitory activity against the ribonucleotide reduction reaction (hereinafter referred to as RNR reaction) of the test compound was determined by measuring the formation of deoxycytidine diphosphate (hereinafter referred to as dCDP) from cytidine diphosphate (hereinafter referred to as CDP) by the following method.Human M1 subunit and human M2 subunit (mutant …
Quantity kind: IC50 (nM)

Example entries and their recorded answers appear below.
- Cc1ccc(F)c([C@@H](C)[C@H](NS(=O)(=O)c2c(Cl)cc(Cl)cc2C(N)=O)c2n[nH]c(=O)o2)c1C: 420
- Cc1c(-c2cnn(C)c2)ccc(F)c1[C@@H](C)[C@H](NS(=O)(=O)c1ccc(Cl)cc1C(N)=O)c1n[nH]c(=O)o1: 170
- Cc1ccc(F)c([C@@H](C)[C@H](NS(=O)(=O)c2ccc(Cl)c(-c3nnn[nH]3)c2)c2n[nH]c(=O)o2)c1C: 280
- Cc1ccc(F)c([C@@H](C)[C@H](NS(=O)(=O)c2ccc3c(c2)C(C)(O)CCC3)c2n[nH]c(=O)o2)c1C (stereo not given in full): 360
- Cc1ccc(F)c([C@@H](C)[C@H](NS(=O)(=O)c2ccc(Cl)cc2C(=O)NOCc2ccccc2)c2n[nH]c(=O)o2)c1C: 910
- COC(=O)c1cc(S(=O)(=O)N[C@H](c2n[nH]c(=S)o2)[C@H](C)c2cccc3c2CCC3)ccc1Cl: 830
- Cc1ccc(F)c([C@@H](C)[C@H](NS(=O)(=O)c2cc(C(=O)N(C)C)c(Cl)cc2C(N)=O)c2n[nH]c(=O)o2)c1C: 40
- C[C@H](c1cccc2c1CCC2)[C@H](NS(=O)(=O)c1ccc(Br)c(C(C)(C)O)c1)c1n[nH]c(=O)o1: 640
- COc1cc(Cl)ccc1S(=O)(=O)N[C@H](c1n[nH]c(=O)o1)[C@H](C)c1c(F)ccc(-c2cn(C)nc2C)c1C: 280
- CC(O)c1c(Cl)ccc(S(=O)(=O)N[C@H](c2n[nH]c(=O)o2)[C@H](C)c2cccc3c2CCC3)c1Cl (stereo not given in full): 170

[1] Cc1ccc(F)c([C@@H](C)[C@H](NS(=O)(=O)c2ccc(Cl)cc2C(=O)NCCO)c2n[nH]c(=O)o2)c1C
[2] C[C@H](c1c(F)ccc2ccccc12)[C@H](NS(=O)(=O)c1ccc(Cl)cc1C(N)=O)c1n[nH]c(=O)o1
[3] COc1cc(Cl)ccc1S(=O)(=O)N[C@H](c1n[nH]c(=O)o1)[C@H](C)c1c(F)ccc(-c2ccc(N3CCCCC3)nc2)c1C
Task item: Order these by IC50, descending, and give the full ranking. // rank by listing labels in the order requested
Reply: 3, 1, 2
(3: 600 nM, 1: 270 nM, 2: 110 nM)

[P] Cc1cc(S(=O)(=O)N[C@H](c2n[nH]c(=O)o2)[C@H](C)c2c(F)ccc(C)c2C)c(C(N)=O)cc1Cl
[Q] Cc1ccc(F)c([C@@H](C)[C@H](NS(=O)(=O)c2ccc(Br)cc2C#N)c2n[nH]c(=O)o2)c1C
Task item: Which value of IC50 is greater, the one for P or the one for Q ? API: response body contains the label of the selected item.
Reply: Q
(Q: 200 nM, P: 100 nM)

---

Measured on: Ribonucleotide reductase (Homo sapiens, UniProt P23921+Q7LG56)
Run description: Human RNR Inhibition Effect: The inhibitory activity against the ribonucleotide reduction reaction (hereinafter referred to as RNR reaction) of the test compound was determined by measuring the formation of deoxycytidine diphosphate (hereinafter referred to as dCDP) from cytidine diphosphate (hereinafter referred to as CDP) by the following method.Human M1 subunit and human M2 subunit (mutant …
Quantity kind: IC50 (nM)

Example entries begin here.
• C[C@H](c1c(F)ccc2ccccc12)[C@H](NS(=O)(=O)c1ccc(Cl)c2c1OCCC2F)c1n[nH]c(=O)o1 (stereo not given in full) = 160
• Cc1c(F)ccc(F)c1[C@@H](C)[C@H](NS(=O)(=O)c1ccc(Cl)cc1C(N)=O)c1n[nH]c(=O)o1 = 500
• Cc1ccc(F)c([C@@H](C)[C@H](NS(=O)(=O)c2cc3c(cc2C(=O)O)OCCO3)c2n[nH]c(=O)o2)c1C = 790
• COC(=O)c1c(Cl)ccc(S(=O)(=O)N[C@H](c2n[nH]c(=S)o2)[C@H](C)c2cccc3c2CCC3)c1Cl = 310
• Cc1ccc(F)c([C@@H](C)[C@H](NS(=O)(=O)c2ccc(C3CC3)cc2C(N)=O)c2n[nH]c(=O)o2)c1C = 130
• COC(=O)c1cc(Br)cnc1S(=O)(=O)N[C@H](c1n[nH]c(=O)o1)[C@H](C)c1c(F)ccc(C)c1C = 450
• Cc1cccc2cccc([C@@H](C)[C@H](NS(=O)(=O)c3ccc(Cl)c4c3OCCC4(F)F)c3n[nH]c(=O)o3)c12 = 280
• Cc1ccc(F)c([C@@H](C)[C@H](NS(=O)(=O)c2ccc(Cl)c(C(=O)N3CCOCC3)n2)c2n[nH]c(=O)o2)c1C = 60
• COc1c(S(=O)(=O)N[C@H](c2n[nH]c(=O)o2)[C@H](C)c2c(F)ccc(C)c2C)ccc(Cl)c1C(C)(C)O = 110
• Cc1ccc(F)c([C@@H](C)[C@H](NS(=O)(=O)c2ccc(Cl)c(C(C)(C)O)n2)c2n[nH]c(=O)o2)c1C = 90

[1] CC(=O)OC(C)c1nc(S(=O)(=O)N[C@H](c2n[nH]c(=O)o2)[C@H](C)c2cccc3c2CCC3)ccc1Cl (stereo not given in full)
[2] COc1cc(Cl)ccc1S(=O)(=O)N[C@H](c1n[nH]c(=O)o1)[C@H](C)c1c(F)ccc(C)c1C
Task item: Form: Entry with minimum IC50 (choose one): 1 / 2 Answer by stating the label of the chosen item.
Reply: 2

---

Measured on: Ribonucleotide reductase (Homo sapiens, UniProt P23921+Q7LG56)
Run description: Human RNR Inhibition Effect: The inhibitory activity against the ribonucleotide reduction reaction (hereinafter referred to as RNR reaction) of the test compound was determined by measuring the formation of deoxycytidine diphosphate (hereinafter referred to as dCDP) from cytidine diphosphate (hereinafter referred to as CDP) by the following method.Human M1 subunit and human M2 subunit (mutant …
Quantity kind: IC50 (nM)

- COc1cc(Cl)ccc1S(=O)(=O)N[C@H](c1n[nH]c(=O)o1)[C@H](C)c1cccc2cccc(C)c12: 240
- Cc1ccc(F)c([C@@H](C)[C@H](NS(=O)(=O)c2ccc(Cl)cc2C#N)c2n[nH]c(=O)o2)c1C: 360
- CC(=O)OC1(C)CCOc2c(S(=O)(=O)N[C@H](c3n[nH]c(=O)o3)[C@H](C)c3c(F)ccc(Br)c3C)ccc(Cl)c21 (some centres not stated): 80
- Cc1cc(F)c(F)c([C@@H](C)[C@H](NS(=O)(=O)c2ccc(Cl)cc2C(N)=O)c2n[nH]c(=O)o2)c1C: 140
- Cc1ccc(F)c([C@@H](C)[C@H](NS(=O)(=O)c2ccc(Cl)c3c2OCC(=O)N3CCO)c2n[nH]c(=O)o2)c1C: 130

[a] Cc1c(Br)ccc(F)c1[C@@H](C)[C@H](NS(=O)(=O)c1ccc(Cl)cc1C(N)=O)c1n[nH]c(=O)o1
[b] Cc1ccc(F)c([C@@H](C)[C@H](NS(=O)(=O)c2ccc(Cl)c3c2C(=O)CCC3)c2n[nH]c(=O)o2)c1C
Task item: Between the entries labeled a and b , whose measured IC50 is lower? Indicate which entry you chose by stating its label.
Reply: a

---

Measured on: Ribonucleotide reductase (Homo sapiens, UniProt P23921+Q7LG56)
Run description: Human RNR Inhibition Effect: The inhibitory activity against the ribonucleotide reduction reaction (hereinafter referred to as RNR reaction) of the test compound was determined by measuring the formation of deoxycytidine diphosphate (hereinafter referred to as dCDP) from cytidine diphosphate (hereinafter referred to as CDP) by the following method.Human M1 subunit and human M2 subunit (mutant …
Quantity kind: IC50 (nM)

Consider the worked cases shown below.
- COC(=O)c1nc(S(=O)(=O)N[C@H](c2n[nH]c(=O)o2)[C@H](C)c2c(F)ccc(C)c2C)ccc1Cl: 60
- Cc1ccc(F)c([C@@H](C)[C@H](NS(=O)(=O)c2ccc(Cl)c(C#N)n2)c2n[nH]c(=O)o2)c1C: 160
- Cc1ccc(F)c([C@@H](C)[C@H](NS(=O)(=O)c2c(F)cccc2F)c2n[nH]c(=O)o2)c1C: 960
- Cc1c(Br)ccc(F)c1[C@@H](C)[C@H](NS(=O)(=O)c1ncc(Cl)cc1C(N)=O)c1n[nH]c(=O)o1: 60
- Cc1ccc(F)c([C@@H](C)[C@H](NS(=O)(=O)c2cccc3c2OC(C)(C)CC3=O)c2n[nH]c(=O)o2)c1C: 240

[1] CCc1ccc(S(=O)(=O)N[C@H](c2n[nH]c(=O)o2)[C@H](C)c2c(F)ccc(C)c2C)c(C(N)=O)c1
[2] Cc1ccc(F)c([C@@H](C)[C@H](NS(=O)(=O)c2cccc3c2OCCN3)c2n[nH]c(=O)o2)c1C
Task item: Between 1 and 2 , which one shows the smaller IC50 number? Let me know the label of the one you choose.
Reply: 1
(1: 130 nM, 2: 420 nM)

[P] Cc1ccc(F)c([C@@H](C)[C@H](NS(=O)(=O)c2cccc3c2OCCN3C(=O)C2CC2)c2n[nH]c(=O)o2)c1C
[Q] Cc1c(Cl)ccc(F)c1[C@@H](C)[C@H](NS(=O)(=O)c1ncc(Cl)cc1C(N)=O)c1n[nH]c(=O)o1
Task item: Could you check which of P and Q has a smaller value for IC50? Answer = label.
Reply: Q

[I] COc1cc(Cl)ccc1S(=O)(=O)N[C@H](c1n[nH]c(=O)o1)[C@H](C)c1c(F)ccc(-c2cnn(C(F)F)c2)c1C
[II] COc1cc(Cl)ccc1S(=O)(=O)N[C@H](c1n[nH]c(=O)o1)[C@H](C)c1cccc(C)c1C(C)C
[III] Cc1ccc(F)c([C@@H](C)[C@H](NS(=O)(=O)c2ccccc2C(=O)NO)c2n[nH]c(=O)o2)c1C
Task item: Place the items in sequence of falling IC50. Give me the labels in the order the question wants.
Reply: II, III, I
(II: 840 nM, III: 310 nM, I: 160 nM)
